assay.details: viability loss in HepG2 hepatoma cells – cell-based, ATP luminescence, cherry-pick, activator set 2, cytotoxicity control, dose response (AID 1053143)
experimental.conditions: CellTiter-Glo ATP luminescence, 72 h; series mostly up to 26 µM
The campaign covered roughly 3,400 compounds. About 120 (3.5%) were called active. A selection follows. Results with a measured potency or affinity are listed apart.
measurement.kind: activity change, negative = cytotoxicity

Please review the entries below; each comes with its answer.
Give the measured activity change, negative = cytotoxicity of Cc1nn2c(=O)cc(COC(=O)c3c(F)cccc3Cl)nc2s1 .
inactive

Quick one: CCC(=O)Nc1ccc(NC(=O)c2ccco2)c(OC)c1
inactive

Same lookup for COc1ccc(NC(=O)c2ccc3c(c2)N(C)CCS3)cc1 , please.
inactive

Next: COc1ccc2cc3cc(C(=O)N4CCCCC4C)oc3nc2c1 (configuration not stated)
inactive

Continuing:
Please report the recorded activity change, negative = cytotoxicity for CC(C)Sc1ccc(C(=O)Nc2ccc(F)cc2F)cn1 .
inactive

Same read-out for CC(=O)Nc1ccc(-c2cc(N)n(-c3ccccc3)n2)cc1 ?
inactive

// next record Nc1[nH]n(-c2ccccc2)c(=O)c1N=Nc1ccccc1
inactive

# credit: PubChem BioAssay AID1053143
